target: CmedGOBP1 (Cnaphalocrocis medinalis); assay: Fluorescence competitive binding assay (1-NPN) with CmedGOBP1; conditions: CmedGOBP1 2 μM, 1-NPN probe 2 μM; read-out: IC50
quantity-kind: IC50 (µM)

molecule: CCCCCCCO [1-Heptanol, 1-heptanol]
IC50, µM: 219
--
molecule: CC(=O)OCc1ccccc1 [Benzyl Acetate, benzyl acetate]
IC50, µM: 223

* * *

Target: CmedGOBP1 (Cnaphalocrocis medinalis, UniProt H9XFD0)
Sequence (H9XFD0 entry or part of it): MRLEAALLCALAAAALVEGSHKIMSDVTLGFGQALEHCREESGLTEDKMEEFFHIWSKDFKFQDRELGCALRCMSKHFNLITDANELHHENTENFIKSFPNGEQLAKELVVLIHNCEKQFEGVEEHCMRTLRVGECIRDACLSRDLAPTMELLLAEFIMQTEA
Test: Fluorescence competitive binding assay (1-NPN) with CmedGOBP1
Procedure: The method for fluorescence competition binding was the same as that described by Zeng et al. (2018). […] The RF5301PC fluorescence spectrophotometer (Shimadzu, Japan) was operated at an excitation wavelength of 337 nm and an emission wavelength of 405 nm (with excitation and emission slits of 5 nm and 10 nm, respectively). […] After the fluorescence intensity was stable, the maximum fluorescence value was recorded. […]
quantity-kind: IC50 (µM)
Write it as a number; the unit µM goes unstated.

compound: CCCCCC=O [Hexanal, hexanal]
system-under-test: CmedGOBP1 (Cnaphalocrocis medinalis, UniProt H9XFD0)
test-result: 249

Read the next record carefully.
Consider the compound O=CCc1ccccc1 [Phenylacetaldehyde, phenylacetaldehyde] and give its measured IC50.
162

* * *

target: CmedOBP15 (Cnaphalocrocis medinalis, UniProt A0A0U3C6L3); experiment: Fluorescence competitive binding assay (1-NPN) with CmedOBP15; conditions: Ki value, CmedOBP15
Sequence (A0A0U3C6L3 entry or part of it): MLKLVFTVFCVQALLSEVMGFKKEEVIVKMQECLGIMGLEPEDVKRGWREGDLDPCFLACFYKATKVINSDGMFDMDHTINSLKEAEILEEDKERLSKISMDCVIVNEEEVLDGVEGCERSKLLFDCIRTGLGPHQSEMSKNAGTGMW
pKi: −log10 of the molar value.
quantity-kind: pKi

Consider the compound "O=CCc1ccccc1" and give its measured pKi.
> 4.70

* * *

target: CmedOBP1 (Cnaphalocrocis medinalis); assay: Fluorescence competitive binding assay (1-NPN) with CmedOBP1; conditions: CmedOBP1; read-out: Ki value
quantity-kind: Ki

Consider the molecule CCCCCCCO [1-Heptanol, 1-heptanol] and give its measured Ki.
< 20 µM

* * *

biological target: CmedGOBP2 (Cnaphalocrocis medinalis, UniProt H9XFD1); assay: Fluorescence competitive binding assay (1-NPN) with CmedGOBP2; conditions: CmedGOBP2 2 μM, 1-NPN probe 2 μM; calculated from IC50; read-out: Ki
Sequence (H9XFD1 entry or part of it): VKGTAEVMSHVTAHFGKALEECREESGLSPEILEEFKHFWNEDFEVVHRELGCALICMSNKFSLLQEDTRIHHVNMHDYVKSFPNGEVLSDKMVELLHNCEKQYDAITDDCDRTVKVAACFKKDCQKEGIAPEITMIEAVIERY
Listed compounds paired with reported Ki

Consider the compound "CCCCCCCO" and give its measured Ki.
> 50 µM

Consider the compound CC(=O)OCc1ccccc1 [Benzyl Acetate, benzyl acetate] and give its measured Ki.
> 50 µM

* * *

biological target: CmedOBP15 (Cnaphalocrocis medinalis, UniProt A0A0U3C6L3); assay: Fluorescence competitive binding assay (1-NPN) with CmedOBP15
Listed molecules paired with reported pIC50
Just so you know, pIC50 here is -log10 of the concentration in molar units; reply with that number alone.

smiles-structure: CCCCCC=O
pIC50: 3.36

Consider the molecule "O=CCc1ccccc1" and give its measured pIC50.
4.35

* * *

target: CmedPBP2 (Cnaphalocrocis medinalis, UniProt M4YHW5); test: Fluorescence competitive binding assay (1-NPN) with CmedPBP2
Sequence (M4YHW5 entry or part of it): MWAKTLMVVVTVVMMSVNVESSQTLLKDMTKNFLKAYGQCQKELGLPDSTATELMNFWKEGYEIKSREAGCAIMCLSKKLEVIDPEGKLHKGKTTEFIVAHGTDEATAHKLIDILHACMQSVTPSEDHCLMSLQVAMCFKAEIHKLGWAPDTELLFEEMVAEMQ
Listed compounds paired with reported Ki

smiles-structure: CCCCCC=O
test-result: > 50 µM

Read the next record carefully.
Consider the compound "O=CCc1ccccc1" and give its measured Ki.
> 50 µM

* * *

molecular target: UniProt:H9XFD0; assay: Fluorescence competitive binding assay (1-NPN) with CmedGOBP1
quantity-kind: Ki

smiles-structure: CCCCCC=O
test-result: > 50 µM

Consider the compound "O=CCc1ccccc1" and give its measured Ki.
> 50 µM

* * *

molecular target: CmedOBP6 (Cnaphalocrocis medinalis); assay: Fluorescence competitive binding assay (1-NPN) with CmedOBP6; settings: CmedOBP6 2 μM, 1-NPN probe 2 μM; read-out: IC50
Sequence (A0A0U3C2E7 entry or part of it): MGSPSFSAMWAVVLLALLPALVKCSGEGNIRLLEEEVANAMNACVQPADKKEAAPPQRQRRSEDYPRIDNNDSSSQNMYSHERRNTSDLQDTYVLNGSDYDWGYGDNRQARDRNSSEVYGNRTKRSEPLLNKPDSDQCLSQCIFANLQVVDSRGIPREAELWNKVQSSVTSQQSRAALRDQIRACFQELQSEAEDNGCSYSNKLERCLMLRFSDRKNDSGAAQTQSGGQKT
quantity-kind: IC50 (µM)

compound: CC(=O)OCc1ccccc1 [Benzyl Acetate, benzyl acetate]
unit-tag: µM
test-result: 558

compound: CCCCCCCO
unit-tag: µM
test-result: 624

* * *

target: UniProt:M4YHW5; assay: Fluorescence competitive binding assay (1-NPN) with CmedPBP2
Listed compounds paired with reported IC50
Write it as a number; the unit µM goes unstated.

Could you share what IC50 was measured for "CCCCCC=O" , tested on UniProt:M4YHW5?
155

Could you share what IC50 was measured for "O=CCc1ccccc1" , tested on UniProt:M4YHW5?
85.8

* * *

biological target: UniProt:A0A0U3C6L3; experiment: Fluorescence competitive binding assay (1-NPN) with CmedOBP15; conditions: CmedOBP15; read-out: Ki value
quantity-kind: Ki

Consider the compound CC(=O)OCc1ccccc1 [Benzyl Acetate, benzyl acetate] and give its measured Ki.
< 20 µM

* * *

target: CmedOBP6 (Cnaphalocrocis medinalis); assay: Fluorescence competitive binding assay (1-NPN) with CmedOBP6
Listed compounds paired with reported pIC50
Just so you know, pIC50 here is -log10 of the concentration in molar units; reply with that number alone.

compound: CCCCCC=O [Hexanal, hexanal]
quantity-kind: pIC50
test-result: 3.42

Read the next record carefully.
Consider the compound O=CCc1ccccc1 [Phenylacetaldehyde, phenylacetaldehyde] and give its measured pIC50.
3.45

* * *

biological target: CmedOBP1 (Cnaphalocrocis medinalis, UniProt H9XFD2); assay: Fluorescence competitive binding assay (1-NPN) with CmedOBP1; conditions: CmedOBP1 2 μM, 1-NPN probe 2 μM; calculated from IC50; read-out: Ki
Sequence (H9XFD2 entry or part of it): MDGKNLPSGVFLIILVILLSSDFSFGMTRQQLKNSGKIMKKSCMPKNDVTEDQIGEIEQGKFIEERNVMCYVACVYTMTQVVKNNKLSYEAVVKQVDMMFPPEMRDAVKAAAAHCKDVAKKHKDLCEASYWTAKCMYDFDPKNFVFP
pKi: −log10 of the molar value.
quantity-kind: pKi

1. CCCCCCCO [1-Heptanol, 1-heptanol]
2. CC(=O)OCc1ccccc1 [Benzyl Acetate, benzyl acetate]
For the pair 1 and 2 , which member has the lower pKi number? Answer by quoting the chosen item's label.
2

* * *

Target: CmedOBP15 (Cnaphalocrocis medinalis, UniProt A0A0U3C6L3)
Assay: Fluorescence competitive binding assay (1-NPN) with CmedOBP15
Details: CmedOBP15 2 μM, 1-NPN probe 2 μM; calculated from IC50; read-out: Ki
Method: The method for fluorescence competition binding was the same as that described by Zeng et al. (2018). […] The RF5301PC fluorescence spectrophotometer (Shimadzu, Japan) was operated at an excitation wavelength of 337 nm and an emission wavelength of 405 nm (with excitation and emission slits of 5 nm and 10 nm, respectively). […] After the fluorescence intensity was stable, the maximum fluorescence value was recorded. […]
quantity-kind: Ki (µM)
Write it as a number; the unit µM goes unstated.

Consider the molecule CC(=O)OCc1ccccc1 [Benzyl Acetate, benzyl acetate] and give its measured Ki.
13.6

* * *

target: CmedPBP2 (Cnaphalocrocis medinalis, UniProt M4YHW5); test: Fluorescence competitive binding assay (1-NPN) with CmedPBP2; details: CmedPBP2 2 μM, 1-NPN probe 2 μM; read-out: IC50
quantity-kind: IC50 (µM)

molecule: CCCCCCCO
test-result: 224
//
molecule: CC(=O)OCc1ccccc1 [Benzyl Acetate, benzyl acetate]
test-result: 235

* * *

Listed compounds paired with reported pIC50
molecular target: CmedGOBP2 (Cnaphalocrocis medinalis); assay: Fluorescence competitive binding assay (1-NPN) with CmedGOBP2
Just so you know, pIC50 here is -log10 of the concentration in molar units; reply with that number alone.

compound: CCCCCC=O [Hexanal, hexanal]
test-result: 3.21

Read the next record carefully.
Consider the compound O=CCc1ccccc1 [Phenylacetaldehyde, phenylacetaldehyde] and give its measured pIC50.
3.91

* * *

molecular target: CmedPBP2 (Cnaphalocrocis medinalis, UniProt M4YHW5); assay: Fluorescence competitive binding assay (1-NPN) with CmedPBP2; details: CmedPBP2 2 μM, 1-NPN probe 2 μM; calculated from IC50; read-out: Ki
quantity-kind: Ki

compound: CC(=O)OCc1ccccc1 [Benzyl Acetate, benzyl acetate]
test-result: > 50 µM

Consider the compound CCCCCCCO [1-Heptanol, 1-heptanol] and give its measured Ki.
> 50 µM

All figures here come from paper PMC10892019.
